This section presents binders with their documented kon values.
Target: T1, recombinant human M-CSF (human, UniProt P09603 33-190, limits assumed)
T1 construct: The active form is described as a disulfide bonded dimer; also called M-SCF; CSF-1
T1 sequence: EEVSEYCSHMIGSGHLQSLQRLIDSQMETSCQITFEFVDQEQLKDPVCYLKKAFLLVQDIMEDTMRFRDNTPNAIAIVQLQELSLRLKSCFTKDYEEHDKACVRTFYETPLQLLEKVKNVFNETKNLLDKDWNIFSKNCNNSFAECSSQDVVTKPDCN
Experiment: SPR (Biacore), M-CSF amine-coupled on CM5 chip, antibody flowed, 25 C, 1:1 model
Numeric only. Scale: M⁻¹ s⁻¹

{"columns": ["Binder", "Endpoint unit", "kon"],
 "data": [
  ["heRX1-9.G2 (antibody, V domains shown, not shown: human Gamma-2 heavy chain constant region; human Kappa light chain constant region (the V region entry may overlap its start)) VH: DVQLQESGPGLVKPSQTLSLTCTVTDYSITSDYAWNWIRQFPGKKLEWMGYISYSGSTSYNPSLKSRITISRDTSKNQFSLQLNSVTAADTATYYCASFDYAHAMDYWGQGTTVTVSS VL: DIVLTQSPAFLSVTPGEKVTFTCQASQSIGTSIHWYQQKTDQAPKLLIKYASESISGIPSRFSGSGSGTDFTLTISSVEAEDAADYYCQQINSWPTTFGGGTKLEIKR", "M⁻¹ s⁻¹", 200000],
  ["heRX1-5.G2 (antibody, V domains shown, not shown: human Gamma-2 heavy chain constant region; human Kappa light chain constant region (the printed V regions end in EIKRT, which may overlap its start)) VH: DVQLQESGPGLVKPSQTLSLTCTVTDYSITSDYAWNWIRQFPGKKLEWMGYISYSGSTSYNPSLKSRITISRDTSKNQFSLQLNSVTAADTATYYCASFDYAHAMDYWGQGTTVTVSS VL: EIVLTQSPGTLSVSPGERVTFSCRASQSIGTSIHWYQQKTGQSPRLLIKYASESISGIPDRFSGSGSGTDFTLTISRVESEDFADYYCQQINSWPTTFGQGTKLEIKR", "M⁻¹ s⁻¹", 175000],
  ["heRX1-4.G2 (antibody, V domains shown, not shown: human Gamma-2 heavy chain constant region; human Kappa light chain constant region (the printed V regions end in EIKRT, which may overlap its start)) VH: QVQLQESGPGLVKPSQTLSLTCTVSDYSITSDYAWNWIRQFPGKGLEWMGYISYSGSTSYNPSLKSRITISRDTSKNQFSLQLNSVTAADTAVYYCASFDYAHAMDYWGQGTTVTVSS VL: EIVLTQSPGTLSVSPGERVTFSCRASQSIGTSIHWYQQKTGQAPRLLIKYASERATGIPDRFSGSGSGTDFTLTISRVESEDFADYYCQQINSWPTTFGQGTKLEIKR", "M⁻¹ s⁻¹", 238000]
]}

Now let's try a different one.
kon reported for this binder heRX1-7.G2 (antibody, V domains shown, copies: 2 + 2) VH: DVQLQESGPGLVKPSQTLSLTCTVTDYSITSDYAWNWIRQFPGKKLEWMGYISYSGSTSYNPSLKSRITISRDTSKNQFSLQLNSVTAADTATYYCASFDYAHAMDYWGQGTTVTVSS VL: EIVLTQSPGTLSVSPGERVTFSCRASQSIGTSIHWYQQKTGQAPRLLIKYASESISGIPDRFSGSGSGTDFTLTISRVESEDFADYYCQQINSWPTTFGQGTKLEIK : 157000
